Reference for the values: patent US8586542B2

molecular target: truncated XIAP containing only BIR1, BIR2, and BIR3 domains (Homo sapiens, UniProt P98170); construct: truncated XIAP containing only BIR1, BIR2, and BIR3 domains; experiment: Fluorescent polarization assay (Bir binding); conditions: competition with 2 nM fluorescein labeled AVPI peptide, room temperature, 1 hour
Sequence (P98170 1-356 limits assumed): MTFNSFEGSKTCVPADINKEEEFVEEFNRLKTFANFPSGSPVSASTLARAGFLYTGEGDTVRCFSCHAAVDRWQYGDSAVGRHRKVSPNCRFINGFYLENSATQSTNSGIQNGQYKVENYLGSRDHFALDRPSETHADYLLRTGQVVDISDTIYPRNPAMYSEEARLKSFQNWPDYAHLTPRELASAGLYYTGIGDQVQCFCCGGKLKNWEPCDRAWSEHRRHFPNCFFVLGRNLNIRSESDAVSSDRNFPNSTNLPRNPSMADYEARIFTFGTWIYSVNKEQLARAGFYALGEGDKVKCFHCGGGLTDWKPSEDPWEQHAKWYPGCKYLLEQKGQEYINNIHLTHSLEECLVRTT
Observable: Bir binding (µM)

Query: # input compound: CN[C@@H](C)C(=O)N[C@@H](CC#CC#CC[C@H](NC(=O)[C@H](C)NC)C(=O)N1CCC[C@H]1C(=O)N[C@@H]1CCCc2ccccc21)C(=O)N1CCC[C@H]1C(=O)N[C@@H]1CCCc2ccccc21 [Compound 1] ; wanted: its Bir binding
Result: 0.07

Query: Okay, and CN[C@@H](C)C(=O)N[C@@H](Cc1nnn2c1-c1c(C[C@H](NC(=O)[C@H](C)NC)C(=O)N3CCC[C@H]3C(=O)N[C@@H]3CCCc4ccccc43)nnn1CCC2)C(=O)N1CCCC1C(=O)N[C@@H]1CCCc2ccccc21.Cl.Cl (stereo partly shown) [Compound 18] ?
Result: 0.176

Query: Okay, and CC[C@H](NC)C(=O)N[C@H](C(=O)N1CCC[C@H]1C(=O)N[C@@H]1CCCc2ccccc21)c1ccc(C#CCO[C@H](C)[C@H](NC(=O)[C@H](C)NC)C(=O)N2CCC[C@H]2C(=O)N[C@@H]2CCCc3ccccc32)cc1.Cl.Cl [Compound 39] ?
Result: 0.18

Query: Okay, and CN[C@@H](C)C(=O)N[C@@H](CCCCNC(=O)CC(=O)NCCCC[C@H](NC(=O)[C@H](C)NC)C(=O)N1CCC[C@H]1C(=O)N[C@@H]1CCCc2ccccc21)C(=O)N1CCC[C@H]1C(=O)N[C@@H]1CCCc2ccccc21.Cl.Cl [Compound 50] ?
Result: 0.2

====

test system: HCC461 cells; experiment: Cell viability assay in HCC461 cells (WST-1); type: cell-based; settings: HCC461; 48 hrs incubation, WST-1 viability; read-out: HCC461 cell
Observable: IC50 (nM)

Worked examples follow.
Query: Query the reported IC50 for HCC461 cells; item: `CN[C@@H](C)C(=O)N[C@@H](CCCCNC(=O)c1ccc(C(=O)NCCCC[C@H](NC(=O)[C@H](C)NC)C(=O)N2CCC[C@H]2C(=O)N[C@@H]2CCCc3ccccc32)cc1)C(=O)N1CCC[C@H]1C(=O)N[C@@H]1CCCc2ccccc21.Cl.Cl`
Result: 20

Query: Okay, and `CN[C@@H](C)C(=O)N[C@@H](Cc1cn(CCn2cc(C[C@H](NC(=O)[C@H](C)NC)C(=O)N3CCC[C@H]3C(=O)N[C@@H]3CCCc4ccccc43)nn2)nn1)C(=O)N1CCC[C@H]1C(=O)N[C@@H]1CCCc2ccccc21.Cl.Cl` ?
Result: 520

1. CNC(C)C(=O)N[C@@H](CC#CC#CC[C@H](NC(=O)[C@H](C)NC)C(=O)N1CCC[C@H]1C(=O)NC(c1ccccc1)c1ccccc1)C(=O)N1CCC[C@H]1C(=O)NC(c1ccccc1)c1ccccc1 (stereo partly shown)
2. CN[C@@H](C)C(=O)N[C@@H](Cc1cn(CCCn2cc(C[C@H](NC(=O)[C@H](C)NC)C(=O)N3CCC[C@H]3C(=O)N[C@@H]3CCCc4ccccc43)nn2)nn1)C(=O)N1CCC[C@H]1C(=O)N[C@@H]1CCCc2ccccc21.Cl.Cl
Query: Input pair: 1 , 2 . Output: entry with lower IC50. Answer with the label corresponding to your selection.
Result: 1
